- experimental.target: T1, µ receptor (rat brain) (rat, UniProt P33535 1-398)
- T1 construct: whole, on cells; Native receptor in crude rat brain plasma membrane homogenate, not on intact cells; also called µ opioid receptor; opioid receptor
- T1 sequence (P33535 whole entry): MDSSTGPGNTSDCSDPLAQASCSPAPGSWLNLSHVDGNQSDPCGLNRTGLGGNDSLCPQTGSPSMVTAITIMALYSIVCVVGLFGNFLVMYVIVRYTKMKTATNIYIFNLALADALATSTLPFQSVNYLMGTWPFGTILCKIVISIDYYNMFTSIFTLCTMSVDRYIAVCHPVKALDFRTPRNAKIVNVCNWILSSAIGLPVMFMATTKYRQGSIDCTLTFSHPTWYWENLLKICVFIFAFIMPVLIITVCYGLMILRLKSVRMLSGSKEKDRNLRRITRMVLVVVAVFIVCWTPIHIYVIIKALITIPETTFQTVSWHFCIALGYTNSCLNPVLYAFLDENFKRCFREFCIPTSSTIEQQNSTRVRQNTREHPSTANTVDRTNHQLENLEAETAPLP
- experiment.description: radioligand competition, [3H]DAMGO on crude rat brain plasma membranes, 4 C, 90 min, filtration
pKd: −log10 of the molar value. Ends that are not written are not given here.

{"binder": "YPFFGLM-NH2 (Chimera of endomorphin-2 at the N-terminus and SP(7-11) at the C-terminus; also called chimeric peptide ESP7; Tyr-Pro-Phe-Phe-Gly-Leu-Met-NH2) [ESP7]", "pKd": "~6.52"}

Taken from patent US20090298755A1.
